System: MS2 coat protein
Assay: apparent KD of MS2 coat protein; higher = weaker reporter binding
Conditions: Eterna round: R107; input ligand: tryptophan 2.4 mM
Classify as follows. Reported apparent KD of MS2 coat protein greater than or equal to 30 nM: True. Reported apparent KD of MS2 coat protein below: False.

* GACAUGAGGAUCACCCAUGUUUGCUAUGAAGGAGCGUCGGAAAUGACAGGUAGGUCGCAUAGUAGGCCUUGUAUUUUGUGUGUUU [EAA #8] | False
* AGACAUGAGGAUCACCCAUGUAGUAUGGAUACCAGAUCCAGAUUUAUCCCUUGGCAGCUGUGGUACAGCGUUGGAUCGCUCCUAG [Exclusion - Theophylline A (Freestyle 12)] | False
* CUCGAGUUAUGAGAUACCAGACUAUAGUUUACAUGAGGAUCACCCAUGUUAUGGGUGGUGGUCCCUUGGCAGCUCAUAUGUUUAA [#08 Exclusion-TheophyllineB] | True

Is it the case that CGUUGGUGUGGAGACAUAUUGAUGACUGAAGGAGCGGGAAUAAACCCAGGUAGGUCGCAGAGAUCCACAUGAGGAUCACCCAUGU [!0.R] has apparent KD of MS2 coat protein reaching or exceeding 30 nM? True

Is it the case that GCCAUCGGCGAAAGCCGAUGGUAUACAGAAGGAGCGCACGAAAGUGCAGGUAGGUCGCUGAACAUGAGGAUCACCCAUGUAAUAA [#29 Same State - Arginine A] has apparent KD of MS2 coat protein reaching or exceeding 30 nM? False

###

System: K4 kissing-loop RNA reporter
Assay: apparent KD of K4 kissing-loop reporter; higher = weaker reporter binding
Conditions: Eterna round: R107; input ligand: none
PROPERTY: apparent KD of K4 kissing-loop reporter (nM)
The answer is to be given in nM; state only the numeric part.

apparent KD of K4 kissing-loop reporter reported for this sequence GGGAGUAGUGCGGCCGCCACUGAGAAAGAAGAAGAAUAUAGUGAUGUUAUAUAGGAAUAAAAGAAUAGGACCGGGCAUUAGAUUU [SSTRyptB.S] : 269

apparent KD of K4 kissing-loop reporter reported for this sequence "GCCGUAGAUGGAAGGAGCGUGUCAAAGUGAUGUUUUGAUUAACUCCCUACGGGAUAGAUGACACAGGUAGGUCGCCAUCUACGGC" : 86.9

apparent KD of K4 kissing-loop reporter reported for this sequence GUAUCGCUAGGAGGAUAUUUCAAUUCGCCUAUAAUAGGUGAUACGGAGUGAUGUUCCGAUUUACGGAAAGAAGGCCUAGUGAUAC [FMN B 10] : 244

###

Overview of reported apparent KD of MS2 coat protein across a group of sequences:
Test system: MS2 coat protein
Experiment: apparent KD of MS2 coat protein; higher = weaker reporter binding
Conditions: Eterna round: R107; input ligand: tryptophan 2.4 mM
In your response, the unit should come after the numeric value.

As a guide, the following entries are already answered.
• ACAUGAGGAUCACCCAUGUAAUGGCACGAUACCAGCUGAUCCCGUGGCCCUUGGCAGCGUCCGGUGUGGUCCGGCGGGUUGGACG [LLLMULLIN] = 0.0174 µM
• CUAUAGAUAAGAAGGAGCGUCGAAAAUGGGUAAACAUGAGGAUCACCCAUGUAAAGGGAACGACAGGUAGGUCGCUUAUUUAUAG [AstromonsSSArgB#6] = 0.145 µM

apparent KD of MS2 coat protein reported for this sequence AAAUAAAUACAUGAGGAUCACCCAUGUGAAGGAGCGCCCGUUAGGGCAGGUAGGUCGCACAUGAAAGGGAAGCGAAAGAAAUAAU [ArgEX 15 #OpenEnded] : 0.0203 µM

apparent KD of MS2 coat protein reported for this sequence ACGUAAUGCAGAAGGAGCGUCGAUCUCAUACAUGAGGAUCACCCAUGUUACAUGGUUGGACGACAGGUAGGUCGCUGAAGUACGA [#06 Exclusion - Arginine B] : 0.0214 µM

apparent KD of MS2 coat protein reported for this sequence GAUGAACUAUUUGAUACCAGACAACAUGAGGAUCACCCAUGUGCGCGUCGUCCUCUGCCUGUCCCUUGGCAGCGGAUAGUUUAUC [XTheo B #12] : 0.0349 µM

apparent KD of MS2 coat protein reported for this sequence UUUUAACAUGAGGAUCACCCAUGUAAUGAUACCAGAGACGAAAGUCUCCCUUGGCAGCAUAUAUCAUUACUCAUAGGAAACUAUG [Theophylline A 6] : 0.0136 µM

apparent KD of MS2 coat protein reported for this sequence GAAUUUUAUUGAAGGAGCGUCGAAAAUGGGUAAACAUGAGGAUCACCCAUGUAAAGGGAACGACAGGUAGGUCGCAAUAGGAUUC [AstromonsSSArgB#28] : 0.151 µM

apparent KD of MS2 coat protein reported for this sequence ACGAUACGACAUGAGGAUCACCCAUGUGAUACCAGCCUGGAAACAGGCCCUUGGCAGCACAAAUACUCCAGAAACGUAUCGAAAA [MAT - Exclusion Theophlline A - Mod of Eli - D6] : 0.156 µM

###

System: MS2 coat protein
Assay: apparent KD of MS2 coat protein; designed switch direction (-1 OFF switch, 1 ON switch): -1; higher = weaker reporter binding
Conditions: input ligand: none
PROPERTY: apparent KD of MS2 coat protein (nM)
The answer is to be given in nM; state only the numeric part.

• UCGUUGUGAGGAUAUAUAUGCAGUAAUCCUUUAAAUUUAUAACUUGAGGAUCACCCAAGUAGAAGGCGCGACGU [JR_Ex2_Sub056] (Eterna round: R97, puzzle: Exclusion 2) = 30.2
• AGUAGGAGAGGAUAUACAUGAAGUCGAAAGACUUCAACUCAACAUGAGGAUCACCCAUGUAGAAGGCUCCUACA [Omei Ex2 BD A6] (Eterna round: R97, puzzle: Exclusion 2) = 25.8

apparent KD of MS2 coat protein reported for this sequence GUCAGGAAUGUAGGAUAUCUGCACGAUUAGUGCAGAGAAGGACAUGAGGAUCACCCAUGUAUAGUAGCUUCGGCUACACCUGAC [ENG1-A1] (Eterna round: R96, puzzle: Exclusion NG 1) : 19.5

###

Tested on: MS2 coat protein
Assay: apparent KD of MS2 coat protein; higher = weaker reporter binding
Conditions: Eterna round: R107; input ligand: theophylline 20 uM
Overview of reported apparent KD of MS2 coat protein across a group of sequences:
The answer is to be given in nM; state only the numeric part.

apparent KD of MS2 coat protein reported for this sequence GAUGAACUAUUUGAUACCAGACAACAUGAGGAUCACCCAUGUGCGCGUCGUCCUCUGCCUGUCCCUUGGCAGCGGAUAGUUUAUC [XTheo B #12] : 124

###

Tested on: K4 kissing-loop RNA reporter;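 further: bound reporter read as fluorescence of individual clusters on recovered sequencing chips by microscopy, with normalized cluster intensities fitted with a binding model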
Assay: apparent KD of K4 kissing-loop reporter; higher = weaker reporter binding
Details: Eterna round: R107; input ligand: tryptophan 2.4 mM
Classify as follows. Reported apparent KD of K4 kissing-loop reporter greater than or equal to 300 nM: yes. Reported apparent KD of K4 kissing-loop reporter below: no.

For orientation, consider the following solved cases.
- GUAUCGCUAGGAGGAUAUUUCAAUCCGCCUAUAAUAGGUGGUACGGAGUGAUGUUCCGAUUUACGGAAAGAAGGCCUAGUGAUAC [FMN B 16]: no
- AAUAAAAUCACGGCCGCCACUGAUACUAGUAUUAGCAGUGAUGUUGCUAUGUAUAAUUUAUUAAAUAGGACCGGGUGAAUAUUUA [#25 K4 Tryptophan B Exclusion]: no
- AACUCUCAGACAUUUGAGUGAUGUUCAGGCCGAGGACCGGUACGGCCGCCACUCGGGUCUGAGAGAGGUUAUCAAAGAUAGCCAA [Omei KL Tryp A SS A v6]: yes
- AGUGGACGUGUCCGGAGUGAUGUUCCGGAUACCAGACACGAAAGUGUCCCUUGGCAGCCGGAGUAAAGUUCCGGCGUUCACUAAA [#26 K4 Theophylline A Exclusion]: no

Is it the case that UGGACCAGGAGUGAUGUUCCAAAAUGUGAUACCAGCCACGAAAGUGGCCCUUGGCAGCACUGCCAGGACGAAAACGUCCGGUCCU [#SwitchBubble 11 #StaticStem #K4Early] has apparent KD of K4 kissing-loop reporter reaching or exceeding 300 nM? no

Is it the case that "GGAAGGAAGGGAAGGAGCGCGCAGGCAGUGAUGUUGCCAAACAAAACAAACAAAACAAAAGCGCAGGUAGGUCGCCCGAAGGACG" has apparent KD of K4 kissing-loop reporter reaching or exceeding 300 nM? no

Is it the case that CGCAGUGAUGUUGCUAUUAUUCUUGAUUAACGAGGACCGGUACGGCCGCCACUCGAUUUCUAUCUGAUCCAGUGUUUUGUUGAGU [#22 K4 Tryptophan A Exclusion] has apparent KD of K4 kissing-loop reporter reaching or exceeding 300 nM? no

Is it the case that GGAUAGGACAGAGGAUAUGGGCUAGGCAAGAAUAACUUGUCUAGCAAAUCCAUGAGGAGUGAUGUUCCAGAAGGUUGUCCUAUCG [FmnBX 1 U75] has apparent KD of K4 kissing-loop reporter reaching or exceeding 300 nM? no

Is it the case that AUGGUUGUCGUAGGAUAUGUAGGAUAUUCCUAUAGCAGUGAUGUUGCUAAUAUCUUGGAAAGAAGGACAGAAGGACGAUAACCAC [KL-SSFMN-B2 #analogue] has apparent KD of K4 kissing-loop reporter reaching or exceeding 300 nM? no

Is it the case that UGUCAUUGGUCGGCCGCCACUUCAUGUAGAGUGAUGUUCUGUAAGACGGAUCGAAAGAUCUGUCGAAGGACCGGGACCGAUGACU [FiskerMod 13 - Jieux - Same State - Tryptophan B] has apparent KD of K4 kissing-loop reporter reaching or exceeding 300 nM? yes

Is it the case that AUUUUGGUUUAGAGUGAUGUUCCUUGUAUUCGAGGACCGGUACGGCCGCCACUCGAAUAGAAAAGAAAAGAAAUGUUUGAUUUUU [BDazzled - #7 SS Tryptophan A] has apparent KD of K4 kissing-loop reporter reaching or exceeding 300 nM? yes

FYI, the data here is from the supplement of paper PMC9170038.
